The measured values listed here are drawn from patent US20020037872A1.

Target: A1 receptor (Mesocricetus auratus)
Construct: endogenous in cells; host or cells: DDT1 (DDT1 MF-2) hamster vas deferens smooth muscle cells
Sequence (A0A1U8BVR4 1-326): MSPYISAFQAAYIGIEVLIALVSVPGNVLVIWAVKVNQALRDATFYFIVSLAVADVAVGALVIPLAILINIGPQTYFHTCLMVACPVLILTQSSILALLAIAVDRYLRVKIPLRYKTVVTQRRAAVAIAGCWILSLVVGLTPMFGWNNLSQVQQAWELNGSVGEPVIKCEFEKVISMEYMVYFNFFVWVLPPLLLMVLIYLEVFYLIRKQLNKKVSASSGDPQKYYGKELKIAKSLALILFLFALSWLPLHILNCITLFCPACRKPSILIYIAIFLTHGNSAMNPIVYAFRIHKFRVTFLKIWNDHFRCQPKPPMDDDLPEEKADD
Experiment: Competitive binding assay, DDT1 cell membranes, [3H]CCPA
Design: species or system hamster
Conditions: [3H]CCPA 2 nM, DDT1 cell membranes; read-out: Ki-DDT1 cell membrane
Give pKi for every item shown.
Scale for pKi: -log10 of concentration given in mol/L; no unit attached.

Summary line: CCOC(=O)C1C2C=CC(C2)C1NC(=O)OCC1OC(n2cnc3c(N[C@@H]4CCOC4)ncnc32)C(O)C1O (some centres unmarked) , A1 receptor (Mesocricetus auratus), reported pKi = 5.99

Summary line: O=C(NC1CCC1)OCC1OC(n2cnc3c(N[C@@H]4CCOC4)ncnc32)C(O)C1O (some centres unmarked) , A1 receptor (Mesocricetus auratus), reported pKi = 6.35

Summary line: O=C(N[C@H]1CCC[C@@H]1O)OC[C@H]1O[C@@H](n2cnc3c(N[C@@H]4CCOC4)ncnc32)[C@H](O)[C@@H]1O , A1 receptor (Mesocricetus auratus), reported pKi = 5.80

Summary line: O=C(NC1CCCC1)SCC1OC(n2cnc3c(NC4CCOC4)ncnc32)C(O)C1O (centres unmarked) , A1 receptor (Mesocricetus auratus), reported pKi = 6.74

Summary line: O=C(O)CCNC(=O)OCC1OC(n2cnc3c(N[C@@H]4CCOC4)ncnc32)C(O)C1O (some centres unmarked) , A1 receptor (Mesocricetus auratus), reported pKi = 5.65

Summary line: COC(=O)CNC(=O)OCC1OC(n2cnc3c(N[C@@H]4CCOC4)ncnc32)C(O)C1O (some centres unmarked) , A1 receptor (Mesocricetus auratus), reported pKi = 5.77

Summary line: OC1C(COC(=S)N2CCCCC2)OC(n2cnc3c(N[C@@H]4CCOC4)ncnc32)C1O (some centres unmarked) , A1 receptor (Mesocricetus auratus), reported pKi = 6.19

Summary line: OC1C(COC(=S)NC2CCCC2OCc2ccccc2)OC(n2cnc3c(N[C@@H]4CCOC4)ncnc32)C1O (some centres unmarked) , A1 receptor (Mesocricetus auratus), reported pKi = 5.91
